TESTED TARGET: Progesterone receptor (Homo sapiens, UniProt P06401)
Sequence (P06401 whole entry): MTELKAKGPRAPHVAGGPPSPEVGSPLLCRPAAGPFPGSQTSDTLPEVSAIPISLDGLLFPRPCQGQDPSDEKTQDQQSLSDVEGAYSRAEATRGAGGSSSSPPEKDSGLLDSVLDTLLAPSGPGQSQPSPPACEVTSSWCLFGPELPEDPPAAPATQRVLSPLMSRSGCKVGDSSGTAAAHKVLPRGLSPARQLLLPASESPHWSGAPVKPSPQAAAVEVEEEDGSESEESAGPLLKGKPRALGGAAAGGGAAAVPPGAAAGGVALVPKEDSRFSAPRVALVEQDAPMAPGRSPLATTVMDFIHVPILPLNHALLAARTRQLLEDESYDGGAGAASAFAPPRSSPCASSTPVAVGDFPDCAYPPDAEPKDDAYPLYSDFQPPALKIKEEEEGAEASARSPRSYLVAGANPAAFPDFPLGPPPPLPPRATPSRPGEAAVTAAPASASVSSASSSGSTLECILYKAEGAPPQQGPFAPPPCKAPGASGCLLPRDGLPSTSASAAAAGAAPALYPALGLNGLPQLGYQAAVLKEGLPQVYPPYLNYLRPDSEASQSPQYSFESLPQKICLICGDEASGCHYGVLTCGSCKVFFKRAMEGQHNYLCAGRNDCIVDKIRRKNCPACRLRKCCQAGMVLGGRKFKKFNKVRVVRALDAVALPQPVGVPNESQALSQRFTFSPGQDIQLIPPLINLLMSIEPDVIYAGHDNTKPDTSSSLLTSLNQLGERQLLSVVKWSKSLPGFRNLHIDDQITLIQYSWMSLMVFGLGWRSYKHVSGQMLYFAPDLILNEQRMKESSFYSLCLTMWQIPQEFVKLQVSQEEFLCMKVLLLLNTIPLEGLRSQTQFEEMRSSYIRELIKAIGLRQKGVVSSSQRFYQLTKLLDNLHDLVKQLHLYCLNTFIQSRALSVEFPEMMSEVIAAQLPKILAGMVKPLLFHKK

QUERY SMILES: Cn1c(SCC(=O)[C@@]2(O)CC[C@H]3[C@@H]4CCC5=CC(=O)C=C[C@]5(C)[C@H]4[C@@H](O)C[C@@]32C)nc2ccccc21
IC50 / µM: 1.37

---

TESTED TARGET: Glucocorticoid receptor (Rattus norvegicus, UniProt P06536)
Sequence (P06536 whole entry): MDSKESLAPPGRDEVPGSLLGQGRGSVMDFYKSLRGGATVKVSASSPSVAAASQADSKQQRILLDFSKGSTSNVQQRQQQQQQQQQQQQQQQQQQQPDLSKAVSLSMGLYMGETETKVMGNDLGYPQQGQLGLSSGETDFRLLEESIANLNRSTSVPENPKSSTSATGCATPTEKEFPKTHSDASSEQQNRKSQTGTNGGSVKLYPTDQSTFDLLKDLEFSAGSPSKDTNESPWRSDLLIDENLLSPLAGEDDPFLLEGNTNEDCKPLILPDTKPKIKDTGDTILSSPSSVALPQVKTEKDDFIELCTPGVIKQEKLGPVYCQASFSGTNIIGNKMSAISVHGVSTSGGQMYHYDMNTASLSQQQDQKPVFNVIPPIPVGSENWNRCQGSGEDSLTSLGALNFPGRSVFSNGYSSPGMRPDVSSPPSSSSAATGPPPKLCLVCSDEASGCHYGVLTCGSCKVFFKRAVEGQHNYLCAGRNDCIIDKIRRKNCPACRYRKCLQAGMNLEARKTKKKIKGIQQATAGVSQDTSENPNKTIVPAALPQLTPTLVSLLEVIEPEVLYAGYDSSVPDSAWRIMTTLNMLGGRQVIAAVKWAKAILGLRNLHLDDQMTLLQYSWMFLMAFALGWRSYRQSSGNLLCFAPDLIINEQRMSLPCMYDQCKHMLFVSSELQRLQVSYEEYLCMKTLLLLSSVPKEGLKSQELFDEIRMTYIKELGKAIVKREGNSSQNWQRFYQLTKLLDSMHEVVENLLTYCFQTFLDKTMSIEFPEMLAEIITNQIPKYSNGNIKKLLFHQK
ASSAY NOTES: Transactivation of glucocorticoid receptor in rat H42E cells assessed as induction of TAT measuring degradation of tyrosine to p-hydroxy phenyl pyruvate
CONDITION PARAMETERS: read-out: IC50 (the source's name)
RECORDED METRIC: log10(EC50) (log10 of the value in nM)

QUERY SMILES: Cn1c(SCC(=O)[C@@]2(O)CC[C@H]3[C@@H]4CCC5=CC(=O)C=C[C@]5(C)[C@H]4[C@@H](O)C[C@@]32C)nc2ccccc21
RECORDED METRIC: log10(EC50)
OBSERVED RESULT: 2.37

QUERY SMILES: C[C@@H]1C[C@H]2[C@@H]3CCC4=CC(=O)C=C[C@]4(C)[C@H]3[C@@H](O)C[C@]2(C)[C@@]1(O)C(=O)CSc1nc2ncccc2o1
RECORDED METRIC: log10(EC50)
OBSERVED RESULT: 2.13

QUERY SMILES: C[C@@H]1C[C@H]2[C@@H]3CCC4=CC(=O)C=C[C@]4(C)[C@H]3[C@@H](O)C[C@]2(C)[C@@]1(O)C(=O)CSc1nc2cccnc2s1
RECORDED METRIC: log10(EC50)
OBSERVED RESULT: 1.38

QUERY SMILES: C[C@@H]1C[C@H]2[C@@H]3CCC4=CC(=O)C=C[C@]4(C)[C@H]3[C@@H](O)C[C@]2(C)[C@@]1(O)C(=O)CSc1nnc(-c2ccccc2)o1
RECORDED METRIC: log10(EC50)
OBSERVED RESULT: 2.87

QUERY SMILES: C[C@]12C=CC(=O)C=C1CC[C@@H]1[C@@H]2[C@@H](O)C[C@@]2(C)[C@H]1CC[C@]2(O)C(=O)CSc1ccccn1
RECORDED METRIC: log10(EC50)
OBSERVED RESULT: 2.85

QUERY SMILES: C[C@@H]1C[C@H]2[C@@H]3CCC4=CC(=O)C=C[C@]4(C)[C@H]3[C@@H](O)C[C@]2(C)[C@@]1(O)C(=O)CSc1nc2ccccc2s1
RECORDED METRIC: log10(EC50)
OBSERVED RESULT: 2.36

QUERY SMILES: C[C@]12C=CC(=O)C=C1CC[C@@H]1[C@@H]2[C@@H](O)C[C@@]2(C)[C@H]1CC[C@]2(O)C(=O)CSc1ccc2ccccc2n1
RECORDED METRIC: log10(EC50)
OBSERVED RESULT: 2.56

QUERY SMILES: C[C@@H]1C[C@H]2[C@@H]3CCC4=CC(=O)C=C[C@]4(C)[C@H]3[C@@H](O)C[C@]2(C)[C@@]1(O)C(=O)CSc1ccc2ccccc2n1
RECORDED METRIC: log10(EC50)
OBSERVED RESULT: 1.28

---

TESTED TARGET: Glucocorticoid receptor (Homo sapiens)
Sequence (P04150 whole entry): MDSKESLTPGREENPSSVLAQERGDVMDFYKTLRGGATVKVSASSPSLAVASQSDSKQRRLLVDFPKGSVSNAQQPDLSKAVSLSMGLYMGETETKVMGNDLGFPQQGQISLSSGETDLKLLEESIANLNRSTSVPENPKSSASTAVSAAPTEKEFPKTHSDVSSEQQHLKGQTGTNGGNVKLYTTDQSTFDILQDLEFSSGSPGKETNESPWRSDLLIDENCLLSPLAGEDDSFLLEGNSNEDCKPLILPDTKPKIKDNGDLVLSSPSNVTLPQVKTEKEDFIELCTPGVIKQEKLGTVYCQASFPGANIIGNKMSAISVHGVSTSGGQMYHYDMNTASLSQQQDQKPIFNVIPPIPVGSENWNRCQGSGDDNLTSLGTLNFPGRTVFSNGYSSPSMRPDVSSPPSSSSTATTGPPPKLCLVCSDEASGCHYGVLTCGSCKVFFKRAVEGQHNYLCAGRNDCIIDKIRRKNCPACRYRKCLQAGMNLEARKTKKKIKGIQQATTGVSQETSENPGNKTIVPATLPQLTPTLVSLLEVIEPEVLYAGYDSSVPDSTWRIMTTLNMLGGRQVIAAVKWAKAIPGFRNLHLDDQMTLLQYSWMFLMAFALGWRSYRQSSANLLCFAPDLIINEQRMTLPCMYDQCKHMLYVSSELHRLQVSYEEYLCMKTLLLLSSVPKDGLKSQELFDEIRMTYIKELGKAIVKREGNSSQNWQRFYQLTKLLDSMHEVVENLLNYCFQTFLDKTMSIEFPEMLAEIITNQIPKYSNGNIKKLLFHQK
ASSAY NOTES: Inhibition of human glucocorticoid receptor

QUERY SMILES: Cn1c(SCC(=O)[C@@]2(O)CC[C@H]3[C@@H]4CCC5=CC(=O)C=C[C@]5(C)[C@H]4[C@@H](O)C[C@@]32C)nc2ccccc21
UNIT DESCRIPTOR: nM
IC50: 7.3

---

Overview of reported Efficacy across a group of compounds:
TESTED TARGET: Glucocorticoid receptor (Homo sapiens, UniProt P04150)
ASSAY NOTES: Transactivation of glucocorticoid receptor in human HepG2 cells assessed as induction of TAT measuring degradation of tyrosine to p-hydroxy phenyl pyruvate at 1 uM relative to untreated control
Assay type: cell-based
CONDITION PARAMETERS: hepg2, 1 µM

QUERY SMILES: C[C@@H]1C[C@H]2[C@@H]3CCC4=CC(=O)C=C[C@]4(C)[C@H]3[C@@H](O)C[C@]2(C)[C@@]1(O)C(=O)CSc1nc2ccccc2s1
Efficacy: 62%
--
QUERY SMILES: C[C@@H]1C[C@H]2[C@@H]3CCC4=CC(=O)C=C[C@]4(C)[C@H]3[C@@H](O)C[C@]2(C)[C@@]1(O)C(=O)CSc1nccc2ccccc12
Efficacy: 8%
--
QUERY SMILES: C[C@]12C=CC(=O)C=C1CC[C@@H]1[C@@H]2[C@@H](O)C[C@@]2(C)[C@H]1CC[C@]2(O)C(=O)CSc1nc2ncccc2[nH]1
Efficacy: 7%
--
QUERY SMILES: C[C@]12C=CC(=O)C=C1CC[C@@H]1[C@@H]2[C@@H](O)C[C@@]2(C)[C@H]1CC[C@]2(O)C(=O)CSc1ccc2ccccc2n1
Efficacy: 52%
--
QUERY SMILES: C[C@@H]1C[C@H]2[C@@H]3CCC4=CC(=O)C=C[C@]4(C)[C@H]3[C@@H](O)C[C@]2(C)[C@@]1(O)C(=O)CSc1nc2ccccc2[nH]1
Efficacy: 30%
--
QUERY SMILES: C[C@@H]1C[C@H]2[C@@H]3CCC4=CC(=O)C=C[C@]4(C)[C@H]3[C@@H](O)C[C@]2(C)[C@@]1(O)C(=O)CO
Efficacy: 125%
--
QUERY SMILES: C[C@@H]1C[C@H]2[C@@H]3CCC4=CC(=O)C=C[C@]4(C)[C@H]3[C@@H](O)C[C@]2(C)[C@@]1(O)C(=O)CSc1nc2ccccc2n1C
Efficacy: 13%
--
QUERY SMILES: C[C@]12C=CC(=O)C=C1CC[C@@H]1[C@@H]2[C@@H](O)C[C@@]2(C)[C@H]1CC[C@]2(O)C(=O)CSc1ccccn1
Efficacy: 22%
--
QUERY SMILES: C[C@@H]1C[C@H]2[C@@H]3CCC4=CC(=O)C=C[C@]4(C)[C@H]3[C@@H](O)C[C@]2(C)[C@@]1(O)C(=O)CSc1ccc2ccccc2n1
Efficacy: 19%
--
QUERY SMILES: C[C@@H]1C[C@H]2[C@@H]3CCC4=CC(=O)C=C[C@]4(C)[C@H]3[C@@H](O)C[C@]2(C)[C@@]1(O)C(=O)CSc1cnc2ccccc2n1
Efficacy: 54%
--
QUERY SMILES: Cc1ccnc(SCC(=O)[C@@]2(O)CC[C@H]3[C@@H]4CCC5=CC(=O)C=C[C@]5(C)[C@H]4[C@@H](O)C[C@@]32C)n1
Efficacy: 6%
--
QUERY SMILES: C[C@]12C=CC(=O)C=C1CC[C@@H]1[C@@H]2[C@@H](O)C[C@@]2(C)[C@H]1CC[C@]2(O)C(=O)CO
Efficacy: 81%
--
QUERY SMILES: C[C@]12C=CC(=O)C=C1CC[C@@H]1[C@@H]2[C@@H](O)C[C@@]2(C)[C@H]1CC[C@]2(O)C(=O)CSc1ncc2ccccc2n1
Efficacy: 10%
--
QUERY SMILES: C[C@@H]1C[C@H]2[C@@H]3CCC4=CC(=O)C=C[C@]4(C)[C@H]3[C@@H](O)C[C@]2(C)[C@@]1(O)C(=O)CSc1ncnc2ccccc12
Efficacy: 30%
--
QUERY SMILES: CCn1c(SCC(=O)[C@@]2(O)CC[C@H]3[C@@H]4CCC5=CC(=O)C=C[C@]5(C)[C@H]4[C@@H](O)C[C@@]32C)nc2ccccc21
Efficacy: 9%
--
QUERY SMILES: C[C@@H]1C[C@H]2[C@@H]3CCC4=CC(=O)C=C[C@]4(C)[C@H]3[C@@H](O)C[C@]2(C)[C@@]1(O)C(=O)CSc1nc2ncccc2o1
Efficacy: 32%
--
QUERY SMILES: C[C@]12C=CC(=O)C=C1CC[C@@H]1[C@@H]2[C@@H](O)C[C@@]2(C)[C@H]1CC[C@]2(O)C(=O)CSc1nc2ncccc2o1
Efficacy: 21%
--
QUERY SMILES: C[C@]12C=CC(=O)C=C1CC[C@@H]1[C@@H]2[C@@H](O)C[C@@]2(C)[C@H]1CC[C@]2(O)C(=O)CSc1nc(-c2ccccc2)cs1
Efficacy: 42%
--
QUERY SMILES: C[C@]12C=CC(=O)C=C1CC[C@@H]1[C@@H]2[C@@H](O)C[C@@]2(C)[C@H]1CC[C@]2(O)C(=O)CSc1nc2cccnc2s1
Efficacy: 6%
--
QUERY SMILES: Cn1c(SCC(=O)[C@@]2(O)CC[C@H]3[C@@H]4CCC5=CC(=O)C=C[C@]5(C)[C@H]4[C@@H](O)C[C@@]32C)nc2ccccc21
Efficacy: 11%
--
QUERY SMILES: C[C@]12C=CC(=O)C=C1CC[C@@H]1[C@@H]2[C@@H](O)C[C@@]2(C)[C@H]1CC[C@]2(O)C(=O)CSc1nc2ccccc2o1
Efficacy: 22%
--
QUERY SMILES: C[C@@H]1C[C@H]2[C@@H]3CCC4=CC(=O)C=C[C@]4(C)[C@H]3[C@@H](O)C[C@]2(C)[C@@]1(O)C(=O)CSc1nnc(-c2ccccc2)o1
Efficacy: 57%
--
QUERY SMILES: Cc1cccc(SCC(=O)[C@@]2(O)[C@H](C)C[C@H]3[C@@H]4CCC5=CC(=O)C=C[C@]5(C)[C@H]4[C@@H](O)C[C@@]32C)n1
Efficacy: 33%
--
QUERY SMILES: C[C@@H]1C[C@H]2[C@@H]3CCC4=CC(=O)C=C[C@]4(C)[C@H]3[C@@H](O)C[C@]2(C)[C@@]1(O)C(=O)CSc1nc2cccnc2s1
Efficacy: 27%
